- assay protocol: yeast display, Sf9 membrane polyspecificity reagent, FACS + sequencing; frameworks hold sequencing errors
endpoint name: polyreactivity (PSR sort gate)

INSERT INTO results (seq, endpoint_name, value_measured) VALUES
  ('QVQLVESGGGLVQAGGSLRLSCAAYGSILRTYAMGWYRQAPGKERELVAAISSSGGSTYYADSVKGRFTISRDNAKNTVYLQMNSLKPEDTAVYYCAARYRYYYTRYDYWGQGTQVTVSS', 'polyreactivity (PSR sort gate)', 'high polyreactivity'),
  ('QVQLVESGGGLVQAGGSLRLSSAASGRIFNGNAMGWSRQSPGKERELVAAISSGGRTYYADSVKGRFTISRDNAKNTVYLQMNSLKPEDTEVYYCAARVILTTYSRNYYYWGQGTQVTVSS', 'polyreactivity (PSR sort gate)', 'high polyreactivity'),
  ('QVQLVESGGGLVQAGGSLRLSCAASGSTFVPNAMGWYRQAPGKERELVAAITVDGDDTYYADSVKGRFTISRDNAKNTVYLQMNSLKPEDTAVYYCAAEQDPWTSRYVFFASRYDYWGQGTQVTVSS', 'polyreactivity (PSR sort gate)', 'low polyreactivity'),
  ('QVQLVESGGGLVQAGGSLRLSCAASGITFDYYAMGWYRQAPRKERELVPGISWGGGSTYYADSVKGRFTISRDNAKNTVYLQMNSLKPEDTAVYYCAADIVSSPSSYVPPGDYWGQGTQVTVSS', 'polyreactivity (PSR sort gate)', 'low polyreactivity'),
  ('QVQLVESGGGLVQAGGSLRLSCAASGSTIDHNAMGWYRQAPGKERELVATISSSGGSTYYADSVKGRFTISRDNAKNTVYLQMNSLKPEDTAVYYCAVRAYYWRSYPYNYWGQGTQVTVSS', 'polyreactivity (PSR sort gate)', 'high polyreactivity');
